Method: cell viability in Huh7 cells, primary screen, cytotoxicity control for HCV replication inhibitor project, CellTiter-Glo luminescence, basal, 48 h (AID 1143);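 note: Huh7 hepatoma cells carrying a hepatitis C replication reporter with no stimulus; test concentration not given here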
Conditions Used: Huh7 HCV replicon, higher = more signal, called active from +8 up or from −8 down
Calls of active or inactive are those of the source.
Readout Label: z-score

Below: 3 compounds and their reported z-score.
Quick one: z-score of CCC[C@@H]1C[C@@]1(CCC)[C@@H](NS(=O)(=O)c1cccc2cccnc12)c1ccc(Cl)cc1 ?
-2.15 (inactive)

Now this one: NC(=O)NCC#Cc1ccc2c(c1)[C@]1(C(=O)N2)[C@H](C(=O)Nc2nc3ccccc3s2)[C@H]2C(=O)O[C@H](c3ccccc3)[C@H](c3ccccc3)N2[C@@H]1c1ccccc1OCCO
-4.58 (inactive)

What about [N-]=[N+]=NCc1ccccc1C[C@]1(C(N)=O)COC(c2ccc(OCCCO)cc2)=N1 ?
-2.4 (inactive)

Pending compound:
Bench note: what z-score did COCCOC(=O)N1C(=O)[C@@]2(c3cc(C#Cc4ccc(OC)cc4)ccc31)[C@H](c1ccc(OCCO)cc1)N1[C@H](c3ccccc3)[C@H](c3ccccc3)OC(=O)[C@H]1[C@@H]2C(=O)N1CCN(c2ncccn2)CC1 show?
-0.438 (inactive)

###

Test System: Calmodulin-1 (Homo sapiens) (UniProt P0DP23)
Method: CALM1 binders on microarrays, EGTA buffer, profiling panel, biochemical, small-molecule microarray, Cy5-labelled CALM1 (AID 1111);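 note: labelled calmodulin applied in Tris saline Tween buffer holding calcium plus EGTA and DTT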
Conditions Used: Cy5-CALM1 binding fluorescence, higher = more signal
In this section we review reported composite z-score values for a set of molecules.
Kindly provide the number alone.

For Calmodulin-1 (Homo sapiens) (UniProt P0DP23), provide composite z-score of C=C(CC1([C@@H](NP(=O)(c2ccccc2)c2ccccc2)[C@H]2C[C@@H]2CCCC)CC1)c1ccccc1 please.
1.19

Try COc1cc(Br)cc(C(O)C2C=CC3C(=O)N(C)C(=O)C3N2N2CCCCC2)c1OC (configuration not stated) next.
-0.104

###

Tested on: Neuregulin-1 EGF-like domain
Method: binders of neuregulin-1 EGF-like domain, primary screen, biochemical, small-molecule microarray, 635 nm fluorescence (AID 1081);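 note: binding of the protein to compounds printed on small-molecule microarray slides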
Conditions Used: small-molecule microarray binding, higher = more signal
Here, each record is paired with measured composite z-score data.

Lab note: need composite z-score for Cc1ccc([C@@H]2C[C@@H](Sc3ccccc3)[C@H](C(=O)O)CN2S(=O)(=O)c2ccc(C)cc2)cc1 on Neuregulin-1 EGF-like domain, anyone have it?
1.35

Subsequent entry: CCS[C@H]1[C@@H](C(=O)O)[C@H](c2ccc(C)cc2)N(S(=O)(=O)c2ccc(C)cc2)[C@@H]1CC
1.36

Similarly, COC(=O)C[C@H]1O[C@]2(C(=O)N(C)c3ccccc32)[C@@H](C)[C@@H]1[Si](C)(C)F ?
0.346

Queued: C=C(CCCC)/C(=C/C[C@H](OC(C)=O)c1ccccc1OCCO)c1cc(C(=O)OC)ccc1OC
0.48

Try this compound too: CC(C)C(=C=CC[C@@H](O)c1ccc(OCCO)cc1)C[C@@H](O)c1ccccn1
0.826

// repeat for [N-]=[N+]=Nc1ccccc1[C@@H]1OC(c2ccc(OCCCO)cc2)=N[C@]1(CCS(=O)(=O)c1ccccc1)C(N)=O and report
1.23

Now consider [N-]=[N+]=NCc1ccccc1C[C@]1(C(N)=O)COC(c2ccc(OCCCO)cc2)=N1 .
1.03

Record: CN(C)CCCC[C@@H]1NC(=O)[C@H]2C[C@@H](C(=O)NCCCCCCN)[C@@H](c3ccc(O)cc3)N2C1=O
1.1

Moving on to the next compound: COC(=O)[C@@]1(Cc2ccc(OC)cc2)[C@H]2c3cc(C(=O)N(C)C)n(Cc4ccc(S(C)(=O)=O)cc4)c3C[C@H]2CN1C(=O)c1ccccc1
1.31

Same lookup for COCCOC(=O)N1C(=O)[C@@]2(c3cc(C#CCCO)ccc31)[C@H](C(N)=O)[C@H]1C(=O)O[C@H](c3ccccc3)[C@H](c3ccccc3)N1[C@@H]2c1ccc(O)cc1 , please.
0.171

Continuing:
What value of composite z-score on Neuregulin-1 EGF-like domain does CC(=O)NCCCC[C@@H]1NC(=O)[C@@H]2C[C@H](C(=O)NCCCCCNC(=O)CS)[C@H](c3cccc(OCCO)c3)N2C1=O have?
0.709

Try O=C(c1ccccc1)N1Cc2ccccc2C[C@@]2(COC(c3ccc(OCCCO)cc3)=N2)C1=O next.
1.25
